Where do these numbers come from? They come from ChEMBL document CHEMBL4619739.

# tested.target: UniProtKB P18031
# Sequence (P18031 whole entry): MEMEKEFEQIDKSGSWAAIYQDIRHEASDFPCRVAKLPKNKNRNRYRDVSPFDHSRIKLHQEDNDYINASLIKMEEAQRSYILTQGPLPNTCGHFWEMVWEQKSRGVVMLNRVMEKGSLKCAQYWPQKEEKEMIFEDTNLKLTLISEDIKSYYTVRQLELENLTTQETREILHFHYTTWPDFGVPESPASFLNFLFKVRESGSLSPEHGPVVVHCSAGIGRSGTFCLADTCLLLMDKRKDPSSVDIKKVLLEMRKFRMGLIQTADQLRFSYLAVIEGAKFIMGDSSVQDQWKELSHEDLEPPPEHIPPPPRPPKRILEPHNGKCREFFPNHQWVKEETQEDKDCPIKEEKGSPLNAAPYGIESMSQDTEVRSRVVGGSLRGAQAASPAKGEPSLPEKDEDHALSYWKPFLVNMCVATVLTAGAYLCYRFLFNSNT
pIC50: −log10 of the molar value.
Given measured pIC50, output true (1) if it is greater than or equal to 5 and false (0) if not.

>  <structure.string>
O=C(Nc1ccc(Cl)cc1)c1ccc(-c2ccc(C(=O)Nc3ccc(Cl)cc3)o2)cc1

>  <category>
false (0)

$$$$
>  <structure.string>
O=C(NC1CCCCC1)c1ccc(-c2ccc(C(=O)NC3CCCCC3)s2)cc1

>  <category>
true (1)

$$$$
>  <structure.string>
O=C(Nc1ccccc1)c1ccc(-c2ccc(C(=O)Nc3ccccc3)[nH]2)cc1

>  <category>
false (0)

$$$$

---

# tested.target: Tyrosine-protein phosphatase non-receptor type 11 (Homo sapiens, UniProt Q06124)
# Sequence (Q06124 whole entry): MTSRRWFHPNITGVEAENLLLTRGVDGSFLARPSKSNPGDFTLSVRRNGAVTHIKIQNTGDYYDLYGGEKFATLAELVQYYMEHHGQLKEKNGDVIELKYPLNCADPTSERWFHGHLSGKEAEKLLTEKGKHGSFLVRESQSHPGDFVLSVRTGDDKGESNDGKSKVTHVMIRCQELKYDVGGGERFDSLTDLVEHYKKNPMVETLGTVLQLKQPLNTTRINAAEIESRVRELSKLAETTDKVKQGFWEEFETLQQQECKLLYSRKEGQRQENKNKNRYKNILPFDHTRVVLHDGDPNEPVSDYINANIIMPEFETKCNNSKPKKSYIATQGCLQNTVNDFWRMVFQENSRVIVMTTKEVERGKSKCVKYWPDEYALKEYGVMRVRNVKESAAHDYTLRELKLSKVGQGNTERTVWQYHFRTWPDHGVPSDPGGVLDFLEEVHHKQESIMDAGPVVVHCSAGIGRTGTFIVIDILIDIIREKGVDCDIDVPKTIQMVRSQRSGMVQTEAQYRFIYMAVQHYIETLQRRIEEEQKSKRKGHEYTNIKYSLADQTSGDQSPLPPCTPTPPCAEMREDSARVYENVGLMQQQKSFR
pIC50: −log10 of the molar value.

>  <structure.string>
O=C(NC1CCCCC1)c1ccc(-c2ccc(C(=O)NC3CCCCC3)s2)cc1

>  <pIC50>
4.97

$$$$
>  <structure.string>
O=C(Nc1ccc(F)cc1)c1ccc(-c2ncc(C(=O)Nc3ccc(F)cc3)s2)cc1

>  <pIC50>
5.33

$$$$
